src = patent US8592581B2

Known half-life at 5 μM of a selection of compounds
target-entity: UniProt:P33261
Sequence (P33261 whole entry): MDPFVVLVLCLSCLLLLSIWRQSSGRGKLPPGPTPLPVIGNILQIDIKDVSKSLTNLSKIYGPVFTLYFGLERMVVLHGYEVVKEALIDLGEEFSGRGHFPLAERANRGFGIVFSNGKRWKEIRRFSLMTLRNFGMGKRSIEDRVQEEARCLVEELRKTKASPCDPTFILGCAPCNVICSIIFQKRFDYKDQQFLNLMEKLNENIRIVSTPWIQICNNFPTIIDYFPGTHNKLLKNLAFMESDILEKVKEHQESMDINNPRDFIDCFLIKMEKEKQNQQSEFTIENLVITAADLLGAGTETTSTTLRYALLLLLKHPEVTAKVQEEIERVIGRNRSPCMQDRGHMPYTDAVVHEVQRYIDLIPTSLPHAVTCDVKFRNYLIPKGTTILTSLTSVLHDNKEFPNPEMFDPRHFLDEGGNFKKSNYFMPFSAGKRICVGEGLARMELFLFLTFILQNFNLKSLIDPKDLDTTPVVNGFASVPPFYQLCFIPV
protocol: Cytochrome P450 substrate identification (Bactosomes) CYP2C19
Type: in vitro ADME
assay-conditions: pH 7.4, 5 μM test compound, up to 45 min, read-out: half life in the presence of CYP2C19

Example entries begin here.
>>> reported_result("CC[C@H](Nc1nc(NCc2cnc(C)cc2C)c2ncn(C(C)C)c2n1)[C@@H](C)O [Compound [1]]")
"> 45 min"
>>> reported_result("CC[C@@H](Nc1nc(NCc2cccnc2)c2ncn(C(C)C)c2n1)C(C)(C)O [Compound [A1]]")
"58.3 min"
>>> reported_result("CC[C@H](Nc1nc(NCc2cccnc2)c2ncn(C(C)C)c2n1)[C@@H](C)O [[A3]]")
"> 45 min"

Turning to the following compound.
input: Hello, I am looking for reported half-life at 5 μM with UniProt:P33261 for CC[C@H](Nc1nc(NCc2cccnc2)c2ncn(C(C)C)c2n1)C(C)(C)O [[A2]] . Could you help?
output: > 45 min
